Test system: RPMI 8226/BTZ100 cells
Assay: cells
Assay type: cell-based, human
Conditions: Homo sapiens, RPMI-8226, 72 h; read-out: IC50 Value Antiproliferative Activity RPMI 8226/BTZ100
Reported values of IC50 for individual entries
Express your answer in nM, writing the number without its unit.

Query :: Output measured IC50 for this item: CC(C)C[C@H](NC(=O)[C@@H](Cc1ccccc1)NC(=O)c1cnc(C(=O)NCc2ccc(C(=O)Nc3ccccc3N)cc2)cn1)B1OC2CC3CC(C3(C)C)[C@@]2(C)O1 (stereo partly drawn) [Compound 5]
Result :: 203

Query :: For the molecule CC(C)C[C@H](NC(=O)[C@@H](Cc1ccccc1)NC(=O)Cc1ccc(C(=O)Nc2ccc(F)cc2N)cc1)B1OC2CC3CC(C3(C)C)[C@@]2(C)O1 (stereo partly drawn) [Compound 7] , report IC50.
Result :: 831

Query :: For the molecule Nc1ccccc1NC(=O)c1ccc(CNC(=O)OCc2cccnc2)cc1 [Ent, entinostat] , give its measured IC50 value.
Result :: 562

---

Quick reference for pIC50 among some compounds
Tested on: RPMI 8226/BTZ100 cells
Assay: cells
Type: cell-based, human
Conditions: Homo sapiens, RPMI-8226, 72 h; read-out: IC50 Value Antiproliferative Activity RPMI 8226/BTZ100
Remember, pIC50 is on a log scale: it is -log10 of the molar concentration.

Here are 2 compounds together with their reported answers.
* CC(C)C[C@H](NC(=O)[C@H](Cc1ccccc1)NC(=O)c1cnccn1)B(O)O | 6.61
* CC(C)C[C@H](NC(=O)[C@@H](Cc1ccccc1)NC(=O)c1cnc(C(=O)Nc2ccccc2N)cn1)B1OC2CC3CC(C3(C)C)[C@]2(C)O1 (stereo partly drawn) | 6.80

Okay, next one:
Query :: Please list pIC50 recorded for the compound CC(C)C[C@H](NC(=O)[C@@H](Cc1ccccc1)NC(=O)c1ccc(C(=O)Nc2ccccc2N)cc1)B1OC2CC3CC(C3(C)C)[C@]2(C)O1 (stereo partly drawn)
Result :: 6.95

---

Target: 26S proteasome (Homo sapiens)
Sequence (P28074 60-263): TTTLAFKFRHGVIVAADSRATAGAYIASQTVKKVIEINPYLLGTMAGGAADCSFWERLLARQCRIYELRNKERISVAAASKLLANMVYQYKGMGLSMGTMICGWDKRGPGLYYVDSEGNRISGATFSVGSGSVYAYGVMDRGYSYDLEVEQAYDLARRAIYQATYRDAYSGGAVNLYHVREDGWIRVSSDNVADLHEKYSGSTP
Experiment: Proteasome inhibitory activity (Suc-LLVY-amc) in RPMI 8226 cell lysate
Assay type: biochemical
Details: read-out: IC50 Value PI Activity; 26S proteasome in RPMI 8226 cell lysate, 30 min preincubation, Suc-LLVY-amc 100 µM, mean ± SD, n = 3
Procedure: RPMI 8226 cells (1 × 10^6 cells/mL) were collected, centrifuged, and washed twice with cold PBS (Gibco). […] Following 1 h incubation at 37 °C in the dark, the fluorescence signal was red (excitation: 380 nm, emission: 440–460 nm) using a Cytation 3 plate reader (BioTek). The percentage of 26S proteasome activity was measured by comparing the fluorescence of the sample treated with the vehicle control wells and multiplied by 100. […]
Recorded measurements of IC50, one per entry

Answered cases to consult:
- CC(C)C[C@H](NC(=O)[C@@H](Cc1ccc(N(CCCl)CCCl)cc1)NC(=O)c1cnc(C(=O)Nc2ccccc2N)cn1)B1OC2CC3CC(C3(C)C)[C@]2(C)O1 (stereo partly drawn): > 50 nM
- CC(C)C[C@H](NC(=O)[C@@H](Cc1ccc(N(CCCl)CCCl)cc1)NC(=O)c1cnccn1)B1OC2CC3CC(C3(C)C)[C@]2(C)O1 (stereo partly drawn): 12.1 nM

Query :: Fill in IC50 for record CC(C)C[C@H](NC(=O)[C@@H](Cc1ccc(N(CCCl)CCCl)cc1)NC(=O)c1cnc(Cl)cn1)B1OC2CC3CC(C3(C)C)[C@]2(C)O1 (stereo partly drawn)
Result :: > 50 nM
